Give measured IC50 for each item. Keep answers brief.
# TARGET_DESC: C-Raf kinase (SEQ. ID NO: 3) (Homo sapiens (Human), UniProt P04049, Y340D/Y341D)
# Sequence (P04049 307-648 Y340D/Y341D): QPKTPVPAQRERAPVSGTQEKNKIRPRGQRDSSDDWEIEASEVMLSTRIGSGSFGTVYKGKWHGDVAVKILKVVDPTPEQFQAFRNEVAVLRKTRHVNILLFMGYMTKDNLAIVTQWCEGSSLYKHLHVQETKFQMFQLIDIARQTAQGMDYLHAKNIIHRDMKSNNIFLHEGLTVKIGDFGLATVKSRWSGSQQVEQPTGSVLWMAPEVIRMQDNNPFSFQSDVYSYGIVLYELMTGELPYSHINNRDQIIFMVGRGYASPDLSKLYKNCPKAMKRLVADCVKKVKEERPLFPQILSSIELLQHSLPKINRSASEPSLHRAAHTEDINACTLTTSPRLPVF
# ASSAY_NOTES: Biochemical Assay for C-Raf (1)
# CONDITION_SET: Table J, assay version (1); read-out: CRAF (1) IC50

IC50 reading for `Cc1cc(-c2cc(NC(=O)C3CC3)ncn2)cc(-c2cc(NC(=O)c3ccnc(C(C)(C)C#N)c3)ccc2C)c1` : ≤ 100 nM

Value of IC50 reported for the molecule `Cc1ncc(NC(=O)c2ccnc(C(C)(C)C#N)c2)cc1-c1cccc(-c2ccnc(C(N)=O)c2)c1` is ≤ 100 nM

Briefly, IC50 measured for `CNC(=O)c1cc(-c2cncc(-c3cc(NC(=O)c4ccnc(C(C)(C)C#N)c4)ccc3C)n2)ccn1` : ≤ 100 nM

Per the records, this molecule ( `Cc1ncc(NC(=O)CC2CC(F)(F)C2)cc1-c1nccc(-c2ccnc(NC(=O)C3CC3)c2)n1` ) has IC50 equal to 100 to 500 nM

###

Kindly supply the reported IC50 values for the records listed here.
# TARGET_DESC: B-Raf kinase (SEQ. ID NO: 2) (Homo sapiens (Human), UniProt P15056)
# Sequence (P15056 416-766): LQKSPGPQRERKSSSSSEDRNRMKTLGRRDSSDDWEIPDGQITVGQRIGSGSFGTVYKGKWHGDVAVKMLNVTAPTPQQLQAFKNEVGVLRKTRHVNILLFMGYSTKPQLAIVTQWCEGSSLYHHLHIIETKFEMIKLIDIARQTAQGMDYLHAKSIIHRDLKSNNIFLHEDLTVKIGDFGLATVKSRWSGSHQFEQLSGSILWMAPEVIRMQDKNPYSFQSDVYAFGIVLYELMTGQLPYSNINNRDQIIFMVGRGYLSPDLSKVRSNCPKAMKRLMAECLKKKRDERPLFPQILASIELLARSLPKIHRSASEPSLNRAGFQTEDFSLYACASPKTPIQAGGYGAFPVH
# ASSAY_NOTES: Biochemical Assay for B-Raf (1)
# CONDITION_SET: Table J, biochemical assay (1); read-out: BRAF (1)

Noted for CNC(=O)c1cc(-c2ccnc(-c3cc(NC(=O)c4ccnc(C(C)(C)F)c4)ccc3C)c2)ccn1 [Example 378] : its IC50 reads 100 to 500 nM

Noted for Cc1ccc(NC(=O)c2ccnc(C(C)(C)F)c2)cc1-c1cncc(-c2cc(NC(=O)C3CC3)ncn2)c1 [Example 394] : its IC50 reads ≤ 100 nM

Sample COC(=O)Nc1cc(-c2cnnc(-c3cc(NC(=O)c4cn(C(C)C)nn4)ccc3C)c2)ccn1 [Example 409] ; IC50 observed: 100 to 500 nM

IC50 measured on Cc1ccc(NC(=O)c2ccnc(C(C)(F)F)c2)cc1-c1cncc(-c2cc(NC(=O)C3CC3)ncn2)c1 [Example 419] = ≤ 100 nM

// Cc1ccc(NC(=O)c2ccnc(C(F)(F)F)c2)cc1-c1cncc(-c2cc(NC(=O)C3CC3)ncn2)c1 [Example 397] : IC50 value = ≤ 100 nM

Recorded result, COc1ccc(NC(=O)c2ccnc(C(C)(C)C#N)c2)cc1-c1cccc(-c2cc(NC(=O)C3CC3)ncn2)c1 [Example 438] , IC50: ≤ 100 nM

Note to self: IC50 recorded for COC(=O)Nc1cc(-c2cnnc(-c3cc(NC(=O)c4ccnc(C(C)(C)F)c4)ccc3C)c2)ccn1 [Example 375] was ≤ 100 nM

###

# Test system: H2405 cells
# ASSAY_NOTES: H2405 Cell Proliferation Assay (1)
# Type: cell-based
# CONDITION_SET: Homo sapiens, NCI-H2405
pIC50: −log10 of the molar value.
What pIC50 was measured for each of the following?

Form: molecule = `CNC(=O)c1cc(-c2cnnc(-c3cc(NC(=O)c4ccnc(C(C)(C)C#N)c4)ccc3C)c2)ccn1` ; pIC50 = 6.00 to 6.30

The molecule `Cc1ncc(NC(=O)c2ccnc(C(C)(C)C#N)c2)cc1-c1cccc(-c2ncnc3[nH]ncc23)c1` showed pIC50 equal to 6.30 to 7.00

Input `CNC(=O)c1cc(-c2cc(-c3cc(NC(=O)c4ccnc(C5(C#N)CC5)c4)ccc3C)ccn2)ccn1` . Output pIC50: ≥ 7.00

Just so you know, measured pIC50 for `CNC(=O)c1cc(-c2cnnc(-c3cc(NC(=O)c4ccnc(C(C)(C)F)c4)cnc3C)c2)ccn1` came out at 5.00 to 6.00

###

# TARGET_DESC: C-Raf kinase (SEQ. ID NO: 3) (Homo sapiens (Human), UniProt P04049, Y340D/Y341D)
# ASSAY_NOTES: Biochemical Assay for C-Raf (1)
# CONDITION_SET: Table J, assay version (1); read-out: CRAF (1) IC50
pIC50: −log10 of the molar value.
I'd appreciate it if you could supply pIC50 values for the items below.

Input Cc1ccc(NC(=O)c2ccnc(C(C)(C)C#N)c2)cc1-c1nccc(-c2ccnc3c2CC(=O)N3)n1 [Example 22] . Output pIC50: ≥ 7.00

Form field pIC50, entry Cc1ccc(NC(=O)C2CCOC(C(C)C)C2)cc1-c1cc(-c2ccnc(NC(=O)C3CC3)c2)cnn1 (stereo not shown) [Example 370] : ≥ 7.00

Cc1ccc(NC(=O)C2CCN(C)C2)cc1-c1cccc(-c2cc(NC(=O)C3CC3)ncn2)c1 (stereo not shown) [Example 344] yielded pIC50 of 6.00 to 6.30

Form: compound = CC(=O)Nc1cc(-c2cc(-c3cc(NC(=O)c4cccc(C(F)(F)F)c4)cnc3C)ccn2)ccn1 [Example 37] ; pIC50 = ≥ 7.00

###

Kindly supply the reported pIC50 values for the records listed here.
# Tested on: H2405 cells
# ASSAY_NOTES: H2405 Cell Proliferation Assay (1)
# Assay type: cell-based
# CONDITION_SET: Homo sapiens, NCI-H2405
pIC50: −log10 of the molar value.

Measured pIC50, `CC(=O)Nc1cc(-c2cc(-c3cc(NC(=O)c4ccnc(C(F)(F)F)c4)ccc3C)nc(N(C)C)n2)ccn1` : ≥ 7.00

Input `CNC(=O)c1cc(-c2cncc(-c3cc(NC(=O)c4ccnc(C(C)(C)C#N)c4)ccc3C)n2)ccn1` . Output pIC50: ≥ 7.00

What the record says about `CNC(=O)c1cc(-c2cnnc(-c3cc(NC(=O)c4ccnc(C(C)(C)OC)c4)ccc3C)c2)ccn1` : pIC50 is 6.30 to 7.00

pIC50 measured on `Cc1ccc(NC(=O)c2ccnc(C3CC3)c2)cc1-c1cc(-c2ccnc(NC(=O)C3CC3)c2)cnn1` = 6.30 to 7.00

The recorded pIC50 for entry `CC(=O)Nc1cc(-c2cc(-c3cc(NC(=O)c4ccnc(C(F)(F)F)c4)ccc3C)cc(N3CCOCC3)n2)ccn1` equals ≥ 7.00

Query `Cc1ccc(NC(=O)c2ccnc(C(C)(C)F)c2)cc1-c1cncc(-c2ccnc(C(N)=O)c2)c1` yields pIC50 of 6.30 to 7.00

Form field pIC50, entry `COC(=O)Nc1cc(-c2cnnc(-c3cc(NC(=O)c4ccnc(C(C)(C)C#N)c4)ccc3C)c2)ccn1` : 6.30 to 7.00

###

Could you please report measured IC50 for the items listed next?
# TARGET_DESC: UniProtKB P15056
# ASSAY_NOTES: Biochemical Assay for B-Raf (1)
# CONDITION_SET: Table J, biochemical assay (1); read-out: BRAF (1)

The molecule identified as `COC(=O)Nc1cc(-c2cncc(-c3cc(NC(=O)c4ccnc(C(C)(C)F)c4)ccc3C)c2)ncn1` registered its IC50 at ≤ 100 nM

Value of measured IC50 for the entry `Cc1ccc(NC(=O)c2ccnc(C(C)(C)F)c2)cc1-c1cncc(-c2ccnc(NC(=O)C3CC3)c2)c1` : ≤ 100 nM

# molecule `CNC(=O)c1cc(-c2cnnc(-c3cc(NC(=O)CCC4(F)CC4)cnc3C)c2)ccn1` ; its IC50 = 1000 to 10000 nM

Given item `Cc1ccc(NC(=O)c2cn(C(C)C)nn2)cc1-c1cncc(-c2cc(NC(=O)C3CC3)ncn2)c1` , the value recorded as its IC50 is ≤ 100 nM

The value of IC50 measured for the molecule `Cc1ccc(NC(=O)c2ccnc(C(C)(C)C#N)c2)cc1-c1cncc(-c2cc(N)ncn2)c1` turned out to be 100 to 500 nM

`CNC(=O)c1cc(-c2cc(-c3cc(NC(=O)c4ccnc(C(C)(C)C#N)c4)ccc3OC)ccn2)ccn1` has a reported IC50 of 100 to 500 nM

Record summary for `Cc1ncc(NC(=O)c2ccnc(C(C)(C)F)c2)cc1-c1cncc(-c2cc(NC(=O)C3CC3)ncn2)c1` : reported IC50 = ≤ 100 nM

Query `Cc1ccc(NC(=O)c2ccnc(C3(C#N)CC3)c2)cc1-c1cncc(-c2cc(NC(=O)C3CC3)ncn2)c1` yields IC50 of ≤ 100 nM

GET /value?item= `Cc1ccc(NC(=O)Cn2cc(C(C)C)nn2)cc1-c1cncc(-c2cc(N)ncn2)c1` &field=IC50 returns 1000 to 10000 nM

Record summary for `CNC(=O)c1cc(-c2cncc(-c3cc(NC(=O)c4cnn(CC(F)(F)F)c4)ccc3C)c2)ncn1` : reported IC50 = 100 to 500 nM

The molecule identified as `Cc1ccc(NC(=O)c2cc(C3CC3)n(C)n2)cc1-c1cc(-c2ccnc(NC(=O)C3CC3)c2)cnn1` registered its IC50 at ≤ 100 nM

So, `CNC(=O)c1cc(-c2cncc(-c3cc(NC(=O)Cn4cc(C(C)C)nn4)ccc3C)c2)ncn1` ? Its IC50 was 100 to 500 nM

IC50 for `Cc1ccc(NC(=O)c2cc(C3CC3)n(C)n2)cc1-c1nccc(-c2ccnc(NC(=O)C3CC3)c2)n1` is ≤ 100 nM

IC50 reported for this molecule `COC(=O)Nc1cc(-c2cnnc(-c3cc(NC(=O)c4ccnc(C(C)(C)C#N)c4)ccc3F)c2)ccn1` : ≤ 100 nM

IC50 reported for this molecule `Cc1cc(F)c(NC(=O)c2ccnc(C(C)(C)C#N)c2)cc1-c1cncc(-c2ccnc(NC(=O)C3CC3)c2)c1` : ≤ 100 nM
